# studySystem: T1, human urokinase-type plasminogen activator receptor (uPAR, CD87), cell-bound (human, UniProt Q03405 23-305)
# T1 construct: whole, on cells; On B300.19 or L929 transfectants (full length cDNA), or native on U937 and PC-3 cells
# T1 sequence (Q03405 23-305): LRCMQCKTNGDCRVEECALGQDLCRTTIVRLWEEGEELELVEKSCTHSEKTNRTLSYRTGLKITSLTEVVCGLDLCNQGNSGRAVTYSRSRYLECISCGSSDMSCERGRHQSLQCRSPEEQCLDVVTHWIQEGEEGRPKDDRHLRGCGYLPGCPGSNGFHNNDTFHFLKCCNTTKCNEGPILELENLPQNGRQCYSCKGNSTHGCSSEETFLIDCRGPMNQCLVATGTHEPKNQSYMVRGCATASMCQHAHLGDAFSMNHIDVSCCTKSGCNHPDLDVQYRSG
# experiment: FACS, U937 cells, mAb 5 µg/ml on ice, alexa647 goat anti-human F(ab), not stripped

binder: anti-uPAR monoclonal antibody 1.99.1 (antibody, V domains shown) VH: EVQLVESGGGLIQPGGSLRLSCAASGFTVRSNYMSWVRQAPGKGLEWISVIYTGGSTYYADSVKGRFSISRDNSKNTLYLQMNSLRAEDTAVYYCAREGAVAGFDYWGQGTLVTVSS VL: EIVMTQSPATLSVSPGERATLSCRASQSISSNLAWYQQKPGQAPRLLIYGASTRATGIPARFSGSGSGTEFTLTISSLQSEDFAVYYCQQYTNWPLTFGGGTKVEIK
geo mean cold - TCEP: 42.5

binder: fully human monoclonal antibody 4.18.1 (ATCC Accession Number PTA-7476) (antibody, V domains shown) VH: EVQLVESGGGLIQPGGSLRLSCAASGFTVRNNYMNWVRQAPGKGLEWVSVIYTGGSTYYADSVKGRFTISRDNSRNTLYLQMNSLRAEDTAVYYCAREGAVAGFDYWGQGTLVTVSL VL: EIVMTQFPATLSMSPGERATLSCRASQSVSSSLAWYQQTPGQAPRLLIYGASTRSTGFPARFSGIGSGTEFTLTISSLQSEDFAVYYCQQYGNWPLTFGQGTRLEIK
geo mean cold - TCEP: 41.2

binder: fully human monoclonal antibody 2.6.1 (ATCC Accession Number PTA-7475) (antibody, V domains shown, also called mAb 2.6.1) VH: EVQLVESGGGLIQPGGSLRLSCAASGFTVITNYMNWVRQAPGKGLEWVSIIYTGGSTSYADSVKGRFTVSRDNSKNTLYLHMNSLRVEDTAVYYCAREIAVAGYYGMDVWGQGTTVTVS VL: DIQMTQSPSSLSASVGDRVTITCRASQGIRNDLGWYQQKPGKAPKRLIYAASSLQSGVPSRFSGSGSGTEFTLTISSLQPEDFATYYCLQHNSYPLTFGGGTRVEIK
geo mean cold - TCEP: 44.3

binder: anti-uPAR monoclonal antibody 4.19.1 (antibody, V domains shown) VH: EVQLVESGGGLIQPGGSLRLSCAASGFSVSSNYMNWVRQAPGKGLEWVSVIYTGGSTYYADSVKGRFTISRDNSKNTLYLQMNSLRAEDTAVYYCARDTYLYGMDVWGQGTTVTVSS VL: EIVMTQSPATLSVSPGESATLSCRTSQSVSSNLAWYQQKPGQTPRLLIYGASARATGVPARFSGSGSGTEFTLTISSLQSEDFAVYYCQQYYNWPLTFGGGTKVEIK
geo mean cold - TCEP: 46

From: patent US20080152587A1
